Fold increase h-GABA-A α2β2γ1 oocyte @ 30-fold Ki for assorted compounds
SUBJECT OF TEST: α2β2γ1 GABAA receptor subtype (Homo sapiens (Human), UniProt P47869+Q8N1C3)
ASSAY PROTOCOL: Two-electrode voltage clamp electrophysiology in Xenopus oocytes expressing GABAA receptors (modulation of GABA EC20 current)
Assay type: cell-based
CONDITION DESCRIPTION: Xenopus oocytes expressing α2β2γ1; compound at approx. 30-fold its Ki α2β2γ1; GABA EC20 current
READOUT NAME: Fold increase h-GABA-A α2β2γ1 oocyte @ 30-fold Ki

>>> df
                                    compound  result
 0  COC1CN(C(=O)c2cn3c(n2)CN=C(c2ccccc2F)c2c-3ccc(Cl)c2Cl)C1 [Example 1]    1.77
 1  C[C@@H]1N=C(c2ncccc2F)c2c(ccc(C(F)(F)F)c2Cl)-n2nc(NC(=O)NC3CC3)nc21 [Example 143]    2.10
 2  COCc1cn2c(n1)CN=C(c1c(F)cccc1F)c1c-2ccc(Cl)c1Cl [Example 5]    1.78
 3  COC1CN(C(=O)c2nc3n(n2)-c2ccc(Cl)c(Cl)c2C(c2c(F)cccc2F)=NC3)C1 [Example 11]    1.62
 4  C[C@@H]1N=C(c2c(F)cccc2F)c2c(ccc(Cl)c2Cl)-n2cc(C(=O)N3CC(O)C3)nc21 [Example 68]    2.07
 5  [2H]C([2H])([2H])OC1CN(C(=O)c2nc3n(n2)-c2ccc(Cl)c(Cl)c2C(c2ncccc2F)=N[C@H]3C)C1 [Example 39]    1.89
 6  CCNC(=O)c1nc2n(n1)-c1ccc(Cl)c(Cl)c1C(c1c(F)cccc1F)=N[C@H]2C [Example 64]    1.75
 7  C[C@@H]1N=C(c2c(F)cccc2F)c2c(ccc(C(F)(F)F)c2Cl)-n2nc(C(=O)N3CCC3)nc21 [Example 26]    1.75
 8  COC1CN(C(=O)c2cn3c(n2)[C@H](C)N=C(c2ncccc2F)c2c-3ccc(C(F)(F)F)c2Cl)C1 [Example 145]    2.68
 9  C[C@@H]1N=C(c2ncccc2F)c2c(ccc(Cl)c2Cl)-n2nc(C(=O)N3CC4(COC4)C3)nc21 [Example 102]    2.43
10  C[C@@H]1N=C(c2ncccc2F)c2c(ccc(C(F)(F)F)c2Cl)-n2cc(C(=O)N3CC(C(F)F)C3)nc21 [Example 156]    2.68
11  C[C@@H]1N=C(c2c(F)cccc2F)c2c(ccc(C(F)(F)F)c2Cl)-n2nc(C(=O)N3CC(C(F)F)C3)nc21 [Example 122]    1.91
12  C[C@@H]1N=C(c2ncccc2F)c2c(ccc(C(F)(F)F)c2Cl)-n2nc(C(=O)N3CC(C(F)F)C3)nc21 [Example 142]    2.23
13  C[C@@H]1N=C(c2c(F)cccc2F)c2c(ccc(Cl)c2Cl)-n2nc(N3CCCC3=O)nc21 [Example 50]    1.60
14  CC(=O)NCc1nc2n(n1)-c1ccc(Cl)c(Cl)c1C(c1c(F)cccc1F)=N[C@H]2C [Example 67]    1.47

The values you see were collected from patent US12365687B2.
